- ASSAY_SUMMARY: Plasma protein binding in human assessed as unbound fraction at 5 uM by LC-MS/MS analysis
- Format: ADME, cell-free
TEST_READOUT: fraction unbound at 5 µM
// response body must contain only the number

Prompt: For the molecule CS(=O)(=O)NC(=O)CCc1cn(-c2ccc(Cl)cc2)nc1-c1ccc(Cl)cc1 , what fraction unbound at 5 µM is on record?
Completion: 0.023

----------
Vd: recorded values
- ASSAY_SUMMARY: Volume of distribution in iv dosed C57BL/6 mouse measured up to 24 hrs by LC-MS/MS analysis
- Type: ADME, organism-based
- CONDITION_DESCRIPTION: C57BL/6, mouse, in vivo, read-out: Vd
All answers are understood in L/kg, so give the number only.

Consider the reported Vd for these compounds:
Prompt: For the compound CS(=O)(=O)NC(=O)CCc1cn(-c2ccc(Br)cc2)nc1-c1ccncc1 , what Vd is on record?
Completion: 0.1

Prompt: Item: CS(=O)(=O)NC(=O)OCc1cn(-c2ccc(Cl)cc2)nc1-c1ccncc1
Completion: 0.1

Let us move to another entry and its Vd.
Prompt: For the compound CS(=O)(=O)NC(=O)CCc1cn(-c2ccc(Cl)cc2)nc1-c1ccc(Cl)cc1 , what Vd is on record?
Completion: 1.2

----------
- ASSAY_SUMMARY: Lipophilicity, logD of the compound at pH 7.4 by HPLC-DAD analysis
- Type: physicochemical
- CONDITION_DESCRIPTION: buffer
Rule: measured logD below 1 gets t; anything equal to or greater than 1 gets f.

Prompt: Confirm or reject: logD of CS(=O)(=O)NC(=O)NCc1cc(-c2ccc(Br)cc2)oc1-c1ccncc1 lies strictly below 1
Completion: t

Others:
Prompt: Confirm or reject: logD of CS(=O)(=O)NC(=O)NCc1cn(-c2ccc(Cl)cc2)nc1-c1ccncc1 lies strictly below 1
Completion: t

Prompt: Item: CS(=O)(=O)NC(=O)CCc1cn(-c2ccc(Br)cc2)nc1C1CCOCC1
Completion: t

Prompt: Item: CS(=O)(=O)NC(=O)CCc1cn(-c2ccc(Br)cc2)nc1-c1ccc(Cl)cc1
Completion: f

----------
- ASSAY_SUMMARY: Metabolic stability in rat liver microsomes assessed as compound remaining at 1 uM by LC-MS/MS analysis
- Type: ADME, Microsome
- CONDITION_DESCRIPTION: liver microsomes, read-out: Stabilty
TEST_READOUT: remaining at 1 µM

Prompt: For the compound CS(=O)(=O)NC(=O)CCc1cn(-c2ccc(Cl)cc2)nc1-c1ccc(Cl)cc1 , what remaining at 1 µM is on record?
Completion: > 99%

----------
- ASSAY_SUMMARY: Metabolic stability in human liver microsomes assessed as compound remaining at 1 uM by LC-MS/MS analysis
- Assay type: ADME, Microsome
- CONDITION_DESCRIPTION: microsomes, 1 µM
# cutoff 90% applies to Stabilty; >= gives Criterion met, < gives Criterion not met

See these solved cases before continuing.
Prompt: Please tell me: is the compound CS(=O)(=O)NC(=O)CCc1cn(-c2ccc(Br)cc2)nc1C1CCOCC1 at or over 90% in terms of Stabilty?
Completion: Criterion not met

Prompt: Item: CS(=O)(=O)NC(=O)CCc1cn(-c2ccc(Br)cc2)nc1-c1cccnc1
Completion: Criterion not met

Others:
Prompt: Please tell me: is the compound CS(=O)(=O)NC(=O)NCc1cn(-c2ccc(Cl)cc2)nc1-c1ccncc1 at or over 90% in terms of Stabilty?
Completion: Criterion met

Prompt: Item: CS(=O)(=O)NC(=O)CCc1cn(-c2ccc(Br)cc2)nc1-c1ccncc1
Completion: Criterion not met

Prompt: Item: CS(=O)(=O)NC(=O)CCc1cn(-c2ccc(C(F)(F)F)nc2)nc1-c1ccc(Cl)cc1
Completion: Criterion met

----------
- ASSAY_SUMMARY: Thermodynamic solubility of compound at pH 7.4 aqueous phosphate buffer
solubility thermodynamic: recorded values
All answers are understood in µM, so give the number only.

Consider the reported solubility thermodynamic for these compounds:
Prompt: For the compound CS(=O)(=O)NC(=O)CCc1oc(-c2ccc(Cl)cc2)nc1-c1ccc(Cl)cc1 , what solubility thermodynamic is on record?
Completion: 200

Prompt: Item: CS(=O)(=O)NC(=O)CCn1nc(-c2ccc(Cl)cc2)cc1-c1ccc(Cl)cc1
Completion: 200

Prompt: Item: CS(=O)(=O)NC(=O)CCc1cn(-c2ccc(Br)cc2)nc1Cc1ccccc1
Completion: 200

Prompt: Item: CS(=O)(=O)NC(=O)C1CC1c1cn(-c2ccc(Br)cc2)nc1-c1ccncc1 (stereo not given)
Completion: 155

Prompt: Item: CS(=O)(=O)NC(=O)CCc1nn(-c2ccc(Br)cc2)cc1-c1ccc(Cl)cc1
Completion: 135

Others:
Prompt: For the compound C[S+]([O-])c1ccc(-n2cc(CCC(=O)NS(C)(=O)=O)c(-c3ccc(Cl)cc3)n2)cc1 (stereo not given) , what solubility thermodynamic is on record?
Completion: 200

----------
Fu: recorded values
- ASSAY_SUMMARY: Plasma protein binding in human assessed as unbound fraction at 5 uM by LC-MS/MS analysis
- Format: ADME, cell-free
- CONDITION_DESCRIPTION: 5 µM
All answers are understood in fraction, so give the number only.

Consider the reported Fu for these compounds:
Prompt: For the compound CS(=O)(=O)NC(=O)CCc1cn(-c2ccc(Br)cc2)nc1-c1cccnc1 , what Fu is on record?
Completion: 0.022

Prompt: Item: CS(=O)(=O)NC(=O)CCc1cc(-c2ccc(Br)cc2)nn1-c1ccc(Cl)cc1
Completion: 0.01

Prompt: Item: CS(=O)(=O)NC(=O)/C=C/c1cn(-c2ccc(Cl)cc2)nc1-c1ccncc1
Completion: 0.015

Prompt: Item: CS(=O)(=O)NC(=O)CCc1cn(-c2ccc(Br)cc2)nc1C1CCOCC1
Completion: 0.07

Prompt: Item: CS(=O)(=O)NC(=O)OCc1cn(-c2ccc(Cl)cc2)nc1-c1ccncc1
Completion: 0.03

Prompt: Item: CS(=O)(=O)NC(=O)CCc1cn(-c2ccc(C(F)(F)F)nc2)nc1-c1ccc(Cl)cc1
Completion: 0.036

Others:
Prompt: For the compound CS(=O)(=O)NC(=O)C1CC1c1cn(-c2ccc(Cl)cc2)nc1-c1ccncc1 (configuration not stated) , what Fu is on record?
Completion: 0.01

----------
solubility thermodynamic: recorded values
- ASSAY_SUMMARY: Thermodynamic solubility of compound at pH 7.4 aqueous phosphate buffer
All answers are understood in µM, so give the number only.

Consider the reported solubility thermodynamic for these compounds:
Prompt: For the compound CS(=O)(=O)NC(=O)CCc1cn(-c2ccc(Br)cc2)nc1-c1ccccc1 , what solubility thermodynamic is on record?
Completion: 200

Prompt: Item: CCS(=O)(=O)NC(=O)CCc1cn(-c2ccc(Br)cc2)nc1-c1ccc(Cl)cc1
Completion: 10

Prompt: Item: CS(=O)(=O)NC(=O)NCc1cn(-c2ccc(C(F)(F)F)nc2)nc1-c1ccncc1
Completion: 195

Prompt: Item: CS(=O)(=O)NC(=O)CCc1cn(-c2ccc(Br)cc2)nc1-c1ccncc1
Completion: 185

Others:
Prompt: For the compound CS(=O)(=O)NC(=O)CCc1cn(-c2ccncc2)nc1-c1ccc(Cl)cc1 , what solubility thermodynamic is on record?
Completion: 190

Prompt: Item: CS(=O)(=O)NC(=O)CCc1cn(-c2ccc(Cl)cc2)nc1-c1ccc(Cl)cc1
Completion: 100

Prompt: Item: CS(=O)(=O)NC(=O)NCc1cc(-c2ccc(Br)cc2)oc1-c1ccncc1
Completion: 25

Prompt: Item: Clc1ccc(-c2nn(-c3ccc(Br)cc3)cc2CCc2nnn[nH]2)cc1
Completion: 150

Prompt: Item: CS(=O)(=O)NC1=NOC(c2cn(-c3ccc(Cl)cc3)nc2-c2ccc(Cl)cc2)C1 (stereo not given)
Completion: 175

----------
- ASSAY_SUMMARY: Volume of distribution in iv dosed C57BL/6 mouse measured up to 24 hrs by LC-MS/MS analysis
- Type: ADME, organism-based
- CONDITION_DESCRIPTION: mouse, in vivo, 24 h
TEST_READOUT: Vd
For clarity, give the value followed by its unit.

Consider the reported Vd for these compounds:
Prompt: For the compound CS(=O)(=O)NC(=O)CCc1cn(-c2ccc(C(F)(F)F)nc2)nc1-c1ccc(Cl)cc1 , what Vd is on record?
Completion: 8.7 L/kg

Prompt: Item: CS(=O)(=O)NC(=O)CCc1cn(-c2ccc(Br)cc2)nc1C1CCOCC1
Completion: 29.3 L/kg

Prompt: Item: CS(=O)(=O)NC(=O)CCc1cn(-c2ccc(Br)cc2)nc1-c1cccnc1
Completion: 28.1 L/kg

Others:
Prompt: For the compound CS(=O)(=O)NC(=O)CCc1cc(-c2ccc(Br)cc2)nn1-c1ccc(Cl)cc1 , what Vd is on record?
Completion: 1 L/kg

Prompt: Item: CS(=O)(=O)NC(=O)CCc1cn(-c2ccc(Br)cc2)nc1-c1ccc(Cl)cc1
Completion: 0.2 L/kg
